Test: compounds altering viability of human ES cells (AID 493140);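 further: cells exposed to compounds for four days before counting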
Details: human embryonic stem cell survival screen; active compounds read high
Measured Attribute: survival
Give bare numbers.

{"Molecule": "CN1CCC(=C2c3ccccc3C=Cc3ccccc32)CC1", "Measurement": 13.7}
{"Molecule": "COc1cc(OC)c(C(=O)CCCN2CCCC2)c(OC)c1", "Measurement": 9.58}
{"Molecule": "C#C[C@]1(O)CC[C@H]2[C@@H]3CCc4cc(OC)ccc4[C@H]3CC[C@@]21C", "Measurement": 3.33}
{"Molecule": "Nc1ccc(N=Nc2ccccc2)c(N)n1", "Measurement": 4}
{"Molecule": "CC(NCCC(c1ccccc1)c1ccccc1)c1ccccc1 (stereo not given)", "Measurement": 3.08}
{"Molecule": "C[C@H](N)[C@H](O)c1cccc(O)c1", "Measurement": 28.4}
{"Molecule": "NNc1nncc2ccccc12", "Measurement": 18.2}
{"Molecule": "CN(C)CCC=C1c2ccccc2C=Cc2ccccc21", "Measurement": 2.75}
{"Molecule": "Nc1ccc(S(=O)(=O)Nc2ccccn2)cc1", "Measurement": 9.08}
{"Molecule": "CN1CCCCC1CCN1c2ccccc2Sc2ccc(S(C)=O)cc21 (stereo not given)", "Measurement": 3.42}

Provide the reported survival of each entry below, same order.
1. COc1ccc(C2CNC(=O)C2)cc1OC1CCCC1 (stereo not given)
2. CC(=O)OC(C)C[N+](C)(C)C (stereo not given)
3. O=C(c1ccc(F)cc1)C1CCN(CCn2c(=O)[nH]c3ccccc3c2=O)CC1
4. C[N+]12CCC(CC1)C(OC(=O)C(O)(c1ccccc1)c1ccccc1)C2 (stereo not given)
5. Cc1c(N(C)C)c(=O)n(-c2ccccc2)n1C

Response:
1: 3.92; 2: 1.33; 3: 12.7; 4: 4.17; 5: 13.6

###

For each entry below, report its viability decrease value.
Test: growth inhibition of GSK3B-pretreated HCT116 cells – cell-based, CellTiter-Glo, 0.2 to 20 µM (AID 1117336)
Details: HCT116 viability after GSK3B inhibitor, at 20 µM, active compounds read high
Give bare numbers, in %.

{"Compound": "Cc1[nH]cnc1CN1CCc2c(c3ccccc3n2C)C1=O", "Measurement": 10.2}
{"Compound": "Nc1ccc(S(N)(=O)=O)cc1", "Measurement": 3.9}
{"Compound": "CCCCCN(C)CCC(O)(P(=O)(O)O)P(=O)(O)O", "Measurement": 1.9}
{"Compound": "Nc1ncnc2c1ncn2[C@@H]1O[C@H](CO)[C@@H](O)[C@H]1O", "Measurement": 41.9}
{"Compound": "CCOC(=O)C1=C[C@]2(CC)CCCN3CCc4c(n1c1ccccc41)[C@@H]32", "Measurement": 14.4}

Provide the reported viability decrease of each entry below, same order.
1. NNc1nncc2ccccc12
2. COc1ccnc(CS(=O)c2nc3ccc(OC(F)F)cc3[nH]2)c1OC (configuration not stated)
3. CC1(C)S[C@@H]2[C@H](NC(=O)[C@H](N)c3ccccc3)C(=O)N2[C@H]1C(=O)O
4. COc1cnc(NS(=O)(=O)c2ccc(N)cc2)nc1
5. CN1CCN(C2=Nc3cc(F)ccc3Cc3ccccc32)CC1
6. CCc1c2c(nc3ccc(OC(=O)N4CCC(N5CCCCC5)CC4)cc13)-c1cc3c(c(=O)n1C2)COC(=O)[C@]3(O)CC
7. CC(=O)OCC(=O)[C@@]1(O)[C@H](C)C[C@H]2[C@@H]3CCC4=CC(=O)C=C[C@]4(C)[C@@]3(F)[C@@H](O)C[C@@]21C
8. NC[C@H]1O[C@H](O[C@H]2[C@H](O)[C@@H](O[C@H]3O[C@H](CO)[C@@H](O)[C@H](N)[C@H]3O)[C@H](N)C[C@@H]2N)[C@H](N)[C@@H](O)[C@@H]1O

Response:
[-10.3, 20.6, -19, -21.6, 12.5, 67.4, 10.3, -7.8]

Provide the reported viability decrease of each entry below, same order.
1. COC(=O)C1=C(C)NC(C)=C(C(=O)OCC(C)C)C1c1ccccc1[N+](=O)[O-] (configuration not stated)
2. O=C1CCc2ccc(OCCCCN3CCN(c4cccc(Cl)c4Cl)CC3)cc2N1
3. COc1cc2c(cc1OC)-c1cc(=Nc3c(C)cc(C)cc3C)n(C)c(=O)n1CC2

Response:
102
95
91.5

Provide the reported viability decrease of each entry below, same order.
1. Nc1nnc(-c2cccc(Cl)c2Cl)c(N)n1
2. CCN1CCCC(OC(=O)C(c2ccccc2)c2ccccc2)C1 (configuration not stated)
3. Cc1cc2cc3c(C)cc(=O)oc3c(C)c2o1
4. CC(C(=O)O)c1ccc(CC2CCCC2=O)cc1 (configuration not stated)
5. NS(=O)(=O)c1cc2c(cc1Cl)NC(CSCc1ccccc1)=NS2(=O)=O
6. CN(C)C(=O)Oc1cccc([N+](C)(C)C)c1

Response:
1: -5.8; 2: 3.4; 3: -8.2; 4: 9.37; 5: -14.2; 6: 10

Provide the reported viability decrease of each entry below, same order.
1. Clc1ccc(C(c2ccccc2Cl)C(Cl)Cl)cc1 (configuration not stated)
2. C[C@H]1O[C@@H](n2cc(F)c(=O)[nH]c2=O)[C@H](O)[C@@H]1O
3. C[N+]12CCC(CC1)C(OC(=O)C(O)(c1ccccc1)c1ccccc1)C2 (configuration not stated)

Response:
1. 46.6
2. 29.5
3. -30.2

Provide the reported viability decrease of each entry below, same order.
1. CCN(CC)C(=O)N1CCN(C)CC1
2. O=C1c2c(O)cccc2Cc2cccc(O)c21
3. CCn1cc(C(=O)O)c(=O)c2cnc(N3CCNCC3)nc21
4. Oc1ccc(Cl)c2cccnc12
5. CCN(CCCCOC(=O)c1ccc(OC)c(OC)c1)C(C)Cc1ccc(OC)cc1 (configuration not stated)
6. O=C(O)CCCCCCCC(=O)O
7. CC(=O)OCC(=O)[C@@]1(O)[C@H](OC(C)=O)C[C@H]2[C@@H]3CCC4=CC(=O)C=C[C@]4(C)[C@@]3(F)[C@@H](O)C[C@@]21C

Response:
-3.6
38.5
-23.1
57.1
-125
-10.2
-9

Provide the reported viability decrease of each entry below, same order.
1. NC(=O)NC1NC(=O)NC1=O (configuration not stated)
2. Nc1nc2c(ncn2COC(CO)CO)c(=O)[nH]1

Response:
1. -10.1
2. -10.4

Provide the reported viability decrease of each entry below, same order.
1. Oc1c(Cl)cc(Cl)c(Cl)c1Cc1c(O)c(Cl)cc(Cl)c1Cl
2. Nc1ncnc2c1ncn2[C@@H]1O[C@H](COP(=O)(O)O)[C@@H](O)[C@H]1O
3. CC(Cc1ccccc1)(NC(=O)CN)c1ccccc1 (configuration not stated)
4. CN(C)CCc1c[nH]c2ccc(CS(=O)(=O)N3CCCC3)cc12

Response:
117
-14.7
-5.9
-11

Provide the reported viability decrease of each entry below, same order.
1. CCOC(=O)O[C@]1(C(=O)OCCl)CC[C@H]2[C@@H]3CCC4=CC(=O)C=C[C@]4(C)[C@H]3[C@@H](O)C[C@@]21C
2. CCCCc1ccc2nc(NC(=O)OC)[nH]c2c1
3. CCN(CC)C(C)CN1c2ccccc2Sc2ccccc21 (configuration not stated)
4. CCN1CCCC1CNC(=O)c1cc(S(=O)(=O)CC)c(N)cc1OC (configuration not stated)

Response:
12.3
91.7
-28.5
-1.8
